// data source = paper PMC10977726

Target: T1, biotin-PDGF-bb (human), P01127
T1 chain: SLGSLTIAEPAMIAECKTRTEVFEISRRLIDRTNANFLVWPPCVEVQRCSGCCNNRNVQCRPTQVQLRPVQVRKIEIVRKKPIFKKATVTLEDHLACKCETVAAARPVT
Assay: SPR; […]; Biacore S200, […] (PBS with 0.05% Tween 20, pH 7.4); […]
assayMetric: Kd

• GCFDDNPFIACKQDSDCLAGCVCWYDTWCG (designed binder, modifications not checked) [P-EET-6] = > 6.7 µM

Turning now to a further record.
Looking for the measured Kd of GCSHWLQEMFGFCKQDSDCLAGCVCEISETCG (designed binder, modifications not checked) [P-EET-2] , can you help? > 20 µM
